Molecular target: PKM2 (Homo sapiens)
Sequence (P14618 whole entry): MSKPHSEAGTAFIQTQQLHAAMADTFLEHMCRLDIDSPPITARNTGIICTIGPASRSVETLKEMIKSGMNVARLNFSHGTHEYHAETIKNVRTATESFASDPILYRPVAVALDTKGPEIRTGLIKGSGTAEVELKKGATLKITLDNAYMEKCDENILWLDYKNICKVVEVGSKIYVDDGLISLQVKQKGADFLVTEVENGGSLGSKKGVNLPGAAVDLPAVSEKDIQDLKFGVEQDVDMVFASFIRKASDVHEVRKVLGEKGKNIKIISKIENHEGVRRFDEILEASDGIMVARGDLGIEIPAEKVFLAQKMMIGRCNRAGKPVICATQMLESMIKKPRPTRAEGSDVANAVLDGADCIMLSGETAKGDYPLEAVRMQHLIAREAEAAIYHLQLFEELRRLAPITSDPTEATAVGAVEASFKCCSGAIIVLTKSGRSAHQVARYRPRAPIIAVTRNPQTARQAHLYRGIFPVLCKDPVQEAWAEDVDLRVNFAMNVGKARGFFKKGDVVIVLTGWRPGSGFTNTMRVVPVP
Assay: PKM2 Assay (activation, LDH-coupled, absorbance at 340 nm)
Format: biochemical
Conditions: Table 5
Readout type: AC50

Observe how each entry below is paired with its result.
For this molecule ( O=C(c1ccc(NS(=O)(=O)c2cccc3cccnc23)cc1F)N1CCN(CC2CCCCO2)CC1 (centres unmarked) ), measured AC50 is 100 to 500 nM

GET /value?item= COc1cc(C(=O)N2CCN(C(=O)c3cccc(F)c3F)CC2)ccc1NS(=O)(=O)c1cccc2cccnc12 &field=AC50 returns 100 to 500 nM

# molecule O=C(c1ccc(NS(=O)(=O)c2cccc3cccnc23)c(OC(F)(F)F)c1)N1CCN(Cc2cncc(Cl)c2)CC1 ; its AC50 = 100 to 500 nM

AC50 reported for this molecule COc1cccnc1CN1CCN(C(=O)c2ccc(NS(=O)(=O)c3cccc4cccnc34)c(OC(F)(F)F)c2)CC1 : 100 to 500 nM

Further cases:
AC50 recorded for this molecule, O=C(c1ccc(NS(=O)(=O)c2cccc3cccnc23)cc1)N1CCN(C(=O)c2ncc[nH]2)CC1 , is < 100 nM
